subjectOfTest: T1, human CD80-murine Ig fusion protein (human)
T1 construct: Bought (Ancell #510-820); also called hCD80-mIg; human CD80-murine IgG
T1 chain: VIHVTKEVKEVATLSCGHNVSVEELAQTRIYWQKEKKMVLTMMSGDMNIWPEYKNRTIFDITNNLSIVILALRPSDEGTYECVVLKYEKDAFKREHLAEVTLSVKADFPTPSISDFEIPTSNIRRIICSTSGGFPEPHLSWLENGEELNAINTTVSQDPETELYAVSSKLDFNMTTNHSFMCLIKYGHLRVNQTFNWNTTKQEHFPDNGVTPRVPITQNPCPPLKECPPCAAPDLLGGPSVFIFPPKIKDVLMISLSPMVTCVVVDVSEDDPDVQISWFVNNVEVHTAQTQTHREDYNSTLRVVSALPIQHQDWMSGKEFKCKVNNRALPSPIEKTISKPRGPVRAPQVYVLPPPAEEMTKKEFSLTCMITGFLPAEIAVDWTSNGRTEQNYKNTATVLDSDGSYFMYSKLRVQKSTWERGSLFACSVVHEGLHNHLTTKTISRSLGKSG
assayName: SPR Biacore, hCD80-mIg captured
propertyMeasured: Kd

Enquiry: Return reported Kd; argument: D3-39-IgG2 (Fc fusion) MHVAQPAVVLASSRGIASFVCEYESPGKANEVRVTVLRQADSQVTEVCAMTYMKGNELTFLDDPICTGTFSGNQVNLTIQGLRAMDTGLYICKVELMYPPPYYLGIGNGTQIYVIDPEPCPDSDERKCCVECPPCPAPPVAGPSVFLFPPKPKDTLMISRTPEVTCVVVDVSHEDPEVQFNWYVDGVEVHNAKTKPREEQFNSTFRVVSVLTVVHQDWLNGKEYKCKVSNKGLPAPIEKTISKTKGQPREPQVYTLPPSREEMTKNQVSLTCLVKGFYPSDIAVEWESNGQPENNYKTTPPMLDSDGSFFLYSKLTVDKSRWQQGNVFSCSVMHEALHNHYTQKSLSLSPG
Return: 0.439 to 1.75 nM
